Target: Lysine-specific demethylase 4C (Homo sapiens)
Sequence (Q9H3R0 whole entry, the tested form may be a part): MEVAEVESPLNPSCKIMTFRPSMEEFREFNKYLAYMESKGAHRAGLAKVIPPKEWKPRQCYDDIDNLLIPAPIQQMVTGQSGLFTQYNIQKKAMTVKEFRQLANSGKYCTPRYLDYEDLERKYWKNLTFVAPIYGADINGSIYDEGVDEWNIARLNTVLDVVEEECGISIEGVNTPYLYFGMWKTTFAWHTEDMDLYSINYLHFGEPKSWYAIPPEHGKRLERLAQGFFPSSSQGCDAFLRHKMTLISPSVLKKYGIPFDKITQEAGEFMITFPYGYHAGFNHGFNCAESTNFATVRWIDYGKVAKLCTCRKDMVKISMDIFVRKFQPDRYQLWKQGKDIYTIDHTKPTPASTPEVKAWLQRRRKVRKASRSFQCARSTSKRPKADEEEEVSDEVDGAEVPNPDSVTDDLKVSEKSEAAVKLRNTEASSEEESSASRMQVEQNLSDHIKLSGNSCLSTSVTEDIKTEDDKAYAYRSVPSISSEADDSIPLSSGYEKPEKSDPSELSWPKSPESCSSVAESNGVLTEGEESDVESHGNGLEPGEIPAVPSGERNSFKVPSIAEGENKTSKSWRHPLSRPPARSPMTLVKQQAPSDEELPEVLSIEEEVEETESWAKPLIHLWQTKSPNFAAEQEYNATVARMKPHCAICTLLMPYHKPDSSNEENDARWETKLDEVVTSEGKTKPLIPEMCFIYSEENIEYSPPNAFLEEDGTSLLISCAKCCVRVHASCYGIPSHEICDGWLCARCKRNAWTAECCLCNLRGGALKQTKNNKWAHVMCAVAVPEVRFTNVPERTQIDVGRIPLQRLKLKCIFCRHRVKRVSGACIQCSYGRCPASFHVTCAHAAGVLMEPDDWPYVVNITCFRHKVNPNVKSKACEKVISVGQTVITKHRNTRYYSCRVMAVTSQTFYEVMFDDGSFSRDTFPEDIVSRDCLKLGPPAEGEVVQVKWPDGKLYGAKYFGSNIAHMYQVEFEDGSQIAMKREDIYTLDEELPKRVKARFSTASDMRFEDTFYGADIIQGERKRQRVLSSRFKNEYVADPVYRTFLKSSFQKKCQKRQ
Experiment: Inhibition of KDM4C (1 to 349 residues)(unknown origin) by Alphalisa assay
List of IC50 values.
Measure Name: IC50 (µM)

{"Compound Structure": "O=C(O)CCNc1cc(N2CCc3ccccc3CC2)nc(-c2ccccn2)n1", "Measure Name": "IC50", "Numeric Value": 34}
{"Compound Structure": "CCOC(=O)CCNc1cc(N2CCc3ccccc3CC2)nc(-c2ccccn2)n1", "Measure Name": "IC50", "Numeric Value": 5.5}

---

Molecular target: UniProt Q8NHM5
Sequence (Q8NHM5 whole entry): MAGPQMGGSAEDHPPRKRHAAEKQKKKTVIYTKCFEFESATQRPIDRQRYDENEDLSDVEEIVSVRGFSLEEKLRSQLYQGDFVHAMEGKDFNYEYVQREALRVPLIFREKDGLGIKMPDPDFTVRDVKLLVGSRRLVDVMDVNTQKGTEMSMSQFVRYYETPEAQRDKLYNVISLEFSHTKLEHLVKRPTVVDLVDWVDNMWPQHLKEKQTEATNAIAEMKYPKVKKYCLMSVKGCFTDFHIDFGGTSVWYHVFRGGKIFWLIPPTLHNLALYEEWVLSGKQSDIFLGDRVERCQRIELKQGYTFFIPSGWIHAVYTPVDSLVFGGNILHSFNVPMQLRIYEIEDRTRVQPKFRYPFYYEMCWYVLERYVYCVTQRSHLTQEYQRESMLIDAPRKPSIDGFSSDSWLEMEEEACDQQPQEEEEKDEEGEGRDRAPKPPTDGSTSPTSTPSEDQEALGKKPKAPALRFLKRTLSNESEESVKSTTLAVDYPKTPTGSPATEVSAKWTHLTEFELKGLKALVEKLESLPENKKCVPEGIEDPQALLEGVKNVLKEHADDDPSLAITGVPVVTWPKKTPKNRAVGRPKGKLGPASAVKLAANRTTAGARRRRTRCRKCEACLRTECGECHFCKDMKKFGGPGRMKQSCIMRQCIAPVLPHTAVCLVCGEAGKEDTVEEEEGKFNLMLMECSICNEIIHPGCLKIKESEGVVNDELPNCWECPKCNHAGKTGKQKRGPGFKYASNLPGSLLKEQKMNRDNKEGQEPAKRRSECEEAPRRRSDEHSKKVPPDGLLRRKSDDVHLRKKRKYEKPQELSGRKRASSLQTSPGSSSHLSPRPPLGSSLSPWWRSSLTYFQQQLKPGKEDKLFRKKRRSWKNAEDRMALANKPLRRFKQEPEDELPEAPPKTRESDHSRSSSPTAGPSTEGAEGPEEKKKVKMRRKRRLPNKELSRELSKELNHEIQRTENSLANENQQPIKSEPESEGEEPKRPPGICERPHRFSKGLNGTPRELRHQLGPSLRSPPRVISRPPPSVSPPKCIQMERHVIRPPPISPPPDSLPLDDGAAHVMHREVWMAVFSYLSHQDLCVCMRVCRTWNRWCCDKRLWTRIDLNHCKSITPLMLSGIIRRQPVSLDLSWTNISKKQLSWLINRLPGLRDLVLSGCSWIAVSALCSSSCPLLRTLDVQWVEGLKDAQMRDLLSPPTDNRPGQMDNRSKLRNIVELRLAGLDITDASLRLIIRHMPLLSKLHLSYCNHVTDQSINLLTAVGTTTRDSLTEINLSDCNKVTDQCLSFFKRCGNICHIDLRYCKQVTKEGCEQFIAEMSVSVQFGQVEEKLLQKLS
pIC50: −log10 of the molar value.
Measure Name: pIC50

{"Compound Structure": "CCOC(=O)CCNc1cc(N2CCc3ccccc3CC2)nc(-c2cccnc2)n1", "Measurement Target": "UniProt Q8NHM5", "Numeric Value": 4.62}
